Cited source for all entries: paper PMC9963587

measure-name: melting point

Some solved cases for reference:
{"molecule": "CC(C)Oc1ccc(-n2cnc3cc(/C=C\\c4ccc(C(C)(C)C)cc4)ccc32)cc1", "melting point": "172 to 174 °C"}
{"molecule": "COc1ccc(-n2cnc3cc(NCc4ccc(OC)c(O)c4)ccc32)cc1 [Compound 13a]", "melting point": "182.1 to 183.3 °C"}

Please find the next molecule below.
Query: Check the records and state melting point for "CC(C)Oc1ccc(-n2cnc3cc(/C=C\c4ccc5ccccc5c4)ccc32)cc1"
Reply: 170 to 171 °C
